method description: molar heat capacity at constant pressure
condition context: 298.15 K; 101.33 kPa; Crystal
Numbers after ± are expanded uncertainties.
measurement kind: molar heat capacity at constant pressure

>  <compound>
O=c1[nH]cc(Br)c(=O)[nH]1

>  <molar heat capacity at constant pressure>
144.7 ± 4.5 J/K/mol

$$$$

Requested field: molar heat capacity at constant pressure. Item: `Cc1c(C)n(C)c(=O)n(C)c1=O`
244.5 ± 7.9 J/K/mol

Proceed to `CCCc1cn(C)c(=O)n(C)c1=O`
302.7 ± 9.4 J/K/mol

Proceed to `O=c1cc[nH]c(=O)[nH]1`
131.8 ± 4.7 J/K/mol

Proceed to Cc1cc(O)nc(O)n1 [2,4-dihydroxy-6-methylpyrimidine]
162.5 ± 5 J/K/mol

----------
Quick list: molar heat capacity at constant pressure per entry.
method description: molar heat capacity at constant pressure
condition context: 308.15 K; 101.33 kPa; Crystal
Give the value, in units of J/K/mol, as a plain number.

Example results:
>  <query smiles>
Cc1cn(C)c(=O)[nH]c1=O

>  <u>
J/K/mol

>  <molar heat capacity at constant pressure>
190.3

$$$$
>  <query smiles>
O=c1[nH]cc(C(F)(F)F)c(=O)[nH]1

>  <u>
J/K/mol

>  <molar heat capacity at constant pressure>
188.1

$$$$
>  <query smiles>
Cc1cc(=O)n(C)c(=O)n1C

>  <u>
J/K/mol

>  <molar heat capacity at constant pressure>
217.1

$$$$

Now look at this one.
Requested field: molar heat capacity at constant pressure. Item: `O=c1[nH]cc(F)c(=O)[nH]1`
140

----------
method description: molar heat capacity at constant pressure
condition context: 308.15 K; 101.33 kPa; Crystal
measurement kind: molar heat capacity at constant pressure (J/K/mol)
Give the value, in units of J/K/mol, as a plain number.

Example results:
>  <compound>
O=c1cc(Cl)[nH]c(=O)[nH]1

>  <measured number>
141.2

$$$$
>  <compound>
Cn1c(=O)cc[nH]c1=O

>  <measured number>
181.2

$$$$
>  <compound>
CCCc1cc(=O)n(C)c(=O)n1C

>  <measured number>
290.5

$$$$

Requested field: molar heat capacity at constant pressure. Item: `O=c1[nH]cc(Br)c(=O)[nH]1`
148.5

Proceed to `CCc1cn(C)c(=O)n(C)c1=O`
256.5

Proceed to `Cn1ccc(=O)n(C)c1=O`
188.7

Proceed to `O=c1[nH]cc(I)c(=O)[nH]1`
156.8

Proceed to Cc1cc(O)nc(O)n1 [2,4-dihydroxy-6-methylpyrimidine]
170.2

Proceed to `O=[N+]([O-])c1cnc(O)nc1O`
169.9

Proceed to `Cn1c2c(c(=O)n(C)c1=O)CCC2`
261.8

----------
method description: molar heat capacity at constant pressure
condition context: 323.15 K; 101.33 kPa; Crystal
Quick list: molar heat capacity at constant pressure per entry.
Give the value, in units of J/K/mol, as a plain number.

>  <molecule>
Cc1nc(O)nc(O)c1C [2,4-dihydroxy-5,6-dimethylpyrimidine]

>  <u>
J/K/mol

>  <molar heat capacity at constant pressure>
215.6

$$$$

Requested field: molar heat capacity at constant pressure. Item: Cn1c2c(c(=O)n(C)c1=O)CCCC2 [1,3-dimethyl-5,6,7,8-tetrahydroquinazoline-2,4(1H,3H)-dione]
319.8

Proceed to Cc1cc(=O)[nH]c(=O)n1C [1,6-dimethyluracil]
211

Proceed to O=[N+]([O-])c1cnc(O)nc1O [2,4-pyrimidinedione, 5-nitro-]
171.8

Proceed to O=c1[nH]cc(F)c(=O)[nH]1 [5-fluoro-2,4(1H,3H)-pyrimidinedione]
143.6

Proceed to CCCCc1cc(=O)n(C)c(=O)n1C [2,4(1H,3H)-pyrimidinedione, 6-butyl-1,3-dimethyl-]
305.3
